Experimental endpoint: melting point

Example cases with answers are listed next.
INSERT INTO results (compound, reported) VALUES
  ('O=c1[nH]c2c(c(=O)[nH]1)CCCC2', '304 to 306 °C'),
  ('COc1ccc(C2CNC(=O)C2)cc1 (stereo not drawn)', '126 to 128 °C'),
  ('COc1ccc(C=C2CCCc3c2nc2ccccc2c3C(=O)O)cc1OC', '110 to 114 °C'),
  ('Cc1ccc(NC(=O)OC(C)(C)C)s1', '103 to 105 °C'),
  ('CNC(=O)COc1ccc(O)cc1', '125 to 127 °C');

For every item in the list below, what is its measured melting point?
1. O=C(O)c1cc(-c2ccco2)nc2onc(C3CC3)c12
2. Nc1cc(-c2cccs2)no1
3. Nc1ccc(-n2cnc3ccccc32)cc1

Given back:
1: 215 to 217 °C; 2: 91 to 93 °C; 3: 104 to 106 °C

---

Consider the following compounds; for each one, report its melting point.

Some solved cases for reference:
INSERT INTO assay_data (compound, experimental_endpoint, reported) VALUES
  ('CC(C)Oc1ccc(-c2csc(N)n2)cc1', 'melting point', '191 to 193 °C'),
  ('CC(C)NC(=O)C(C#N)=CN(C)C', 'melting point', '113 to 115 °C'),
  ('CCc1cccc2c(C(=O)CCl)c[nH]c12', 'melting point', '165 to 167 °C'),
  ('Nc1ccc(-c2nc3ccc(N)cc3[nH]2)cc1', 'melting point', '234 to 236 °C'),
  ('COC(=O)c1ccc(-c2nc(CCl)cs2)cc1', 'melting point', '108 to 110 °C'),
  ('Cc1ccc(C(=O)Nc2ccccc2N)cc1', 'melting point', '154 to 156 °C'),
  ('CC(Sc1ccc(Cl)cc1)C(=O)O (centres undefined)', 'melting point', '106 to 108 °C'),
  ('O=Cc1ccc(-c2ccc(Br)cc2)s1', 'melting point', '110 to 112 °C'),
  ('CC1(CCc2ccccc2)NC(=O)NC1=O (centres undefined)', 'melting point', '179 to 181 °C'),
  ('Nc1ccc(F)c(NC(=O)Cn2cncn2)c1', 'melting point', '194 to 196 °C');

Give me melting point for each of these compounds, listed below.
1. Cc1nc(C(C)(C)O)n[nH]1
2. CC(C)Oc1ccc(C(N)=O)cc1
3. c1ccc2c(c1)NCCN2C1CC1
4. COCCS(=O)(=O)c1ccc(Cl)c(C(=O)O)c1Cl

Given back:
1: 185 to 187 °C; 2: 166 to 168 °C; 3: 58 to 60 °C; 4: 129 to 131 °C

---

Experimental endpoint: melting point

Here is how some compounds turned out for melting point.
INSERT INTO measurements (smiles_record, reported) VALUES
  ('CCN(CC)C(=O)c1ccc(N)cc1Cl', '154 to 156 °C'),
  ('CC1CCN(c2ccc(NC(=O)CCC(=O)O)cc2)CC1', '174 to 176 °C'),
  ('Cc1cccc(C(=O)O)c1NC(=O)c1ccncc1', '249 to 251 °C'),
  ('CCCc1nc(C(=O)O)nn1-c1ccccc1Cl', '142 to 144 °C'),
  ('Nc1cc(-c2cccc(Cl)c2)nn1-c1ccccc1', '118 to 120 °C');

Asked: Quickly give me recorded melting point for Cc1c[nH]c(=O)n1-c1ccccc1Cl
Given back: 199 to 201 °C

From: a melting point compilation (Tetko et al.)
